# assay overview: physchem
# reported conditions: octan-1-ol/water, pH 7.4
Please note: logD exactly at 2 is f. Only values below 2 get t.

- Nc1nc(Nc2ccc3nc(-c4ccc(F)cc4)cc(N)c3c2)cc(-c2cccc(Cl)c2)n1: f
- Cc1ccc(NC(=O)c2ccnc(N3CCOCC3)c2)cc1Nc1ccnc(N(C)C2CCN(C)CC2)n1: t
- CC(=O)Nc1nc(-c2cccs2)cs1: f
- NC(Cc1ccc(N(CCCl)CCCl)cc1)C(=O)O (configuration not stated): t
- CCOC(=O)c1c(-c2ccccc2)nc2cc(C)ccn12: f
- O=C(c1ccc(C(=C2CCN(Cc3cscn3)CC2)c2cccc3cccnc23)cc1)N1CCCC1: f
- Cc1cc(=O)[nH]c2sc(C(=O)c3ccc(Br)cc3)c(N)c12: f
- c1ccc(-c2ccc(C3CN4CCC3CC4)cc2)cc1 (configuration not stated): t
- CC12CCC(=O)C=C1CCC1C2CCC2(C)C(O)CCC12 (configuration not stated): f
- NCCc1ccc(O)c2nc(O)sc12: t
- CCc1c(C(=O)C(N)=O)c2c(OCC(N)=O)cccc2n1Cc1ccccc1: f
- COc1ccc(Cc2nccc3cc(OC)c(OC)cc23)cc1OC: f
- NC(=O)c1ccc(Oc2cccc3cccnc23)c([N+](=O)[O-])c1: t
- C[C@H]1NC(C)(C)CO[C@]1(O)c1cccc(Cl)c1: t
- NC(=O)c1cccc(C[C@@H]2C[C@H]3CC[C@@H](C2)N3Cc2ccccc2)c1: t
- C[C@@H]1NC(C)(C)CO[C@@]1(O)c1cccc(Cl)c1: t
- CCNC1=Nc2ccccc2C(c2ccccc2)=NC1c1cccs1 (configuration not stated): f
- Cc1ccn2c(NC(=O)c3ccccc3)c(-c3cccs3)nc2c1: f
- CCN(CC)C(=O)c1ccc([C@H](c2cccc(NC(=O)C3CC3)c2)N2CCN(CCOC)CC2)cc1: f
- COc1cccc(COCC(O)CN2CCC(C(N)=O)CC2)c1 (configuration not stated): t
- CCN(CC)CCN1C(=O)CN=C(c2ccccc2F)c2cc(Cl)ccc21: f
- O=C1COc2ccc(CNC3CCN(CCN4C(=O)COc5ccc(Cl)cc54)CC3)nc2N1: t
- Cc1ccc(CN2[C@@H]3CC[C@H]2C[C@H](Oc2cccc(C(N)=O)c2)C3)s1: f
- Cc1c(OCC(F)(F)F)ccnc1C[S+]([O-])c1nc2ccccc2[nH]1 (configuration not stated): f
- COc1cc2c(c(OC)c1OC)-c1ccc(OC)c(=O)cc1C(NC(C)=O)CC2 (configuration not stated): t
- O=C(NCc1ccncn1)c1ccc(Oc2ccc(C#C[C@]3(O)CN4CCC3CC4)cc2)cc1: t
- CC(C)CC(N(C)C)C1(c2ccc(Cl)cc2)CCC1 (configuration not stated): f
- Oc1ncnc2[nH]ncc12: t

Provenance of the data: ChEMBL document CHEMBL3301361
